Test system: EKVX NSCLC
experiment: NCI tumour cell line growth inhibition, 48 h
Record form. Attribute: TGI. Fill in for each entry.

Here are 3 compounds together with their reported answers.
compound: CCCC(=O)OCC1OC(n2cc(F)c(=O)[nH]c2=O)C(F)C1OC(=O)CCC (stereo not given)
TGI: > 100 µM
//
compound: CNC(=O)OC1C(O[C@H]2C[C@H]3[C@@H]4CC=C5C[C@@H](O)CC[C@]5(C)[C@H]4CC[C@]3(C)[C@H]2[C@H](C)C(=O)CCC(C)C)OCC(O)C1OC1OCC(O)C(O)C1OC(=O)c1ccc(OC)cc1 (stereo not given in full)
TGI: 3.47 µM
//
compound: CO[C@@]12C[C@H]3[C@@H]([C@@H](O)[C@@H](OC(=O)/C=C/c4ccccc4)[C@@]4(O)C(C)(C)CCC[C@]34C)[C@@H](C)C1=CC(=O)O2
TGI: 57.5 µM

Dear colleague, could you please provide TGI for the compounds listed below?
1. O=[N+]([O-])C(=C(Nc1ccccc1)Nc1ccccc1)/C(Cl)=C(\Cl)Br
2. CC(=O)Oc1cc(C)c(OC(C)=O)c2c1[C@H]1CC[C@]3(C)[C@@H](OC(C)=O)CC[C@H]3[C@@H]1CC2
3. COc1cc(C)c(C)c(OC(=O)c2c(C)c(C)c(OC)c(C)c2OC)c1C

1. 32.1 µM
2. 26.4 µM
3. 98.3 µM

Dear colleague, could you please provide TGI for the compounds listed below?
1. CC(O)C(O)C(O)C(/C=N\Nc1ccccc1)=N/Nc1ccccc1 (stereo not given)
2. Oc1c(I)cc(-c2nc3ccccc3s2)cc1CN(Cc1ccccn1)Cc1ccccn1
3. Cc1cnoc1NS(=O)(=O)c1ccc(Nc2nnc(/C=C/c3c(O)ccc4ccccc34)c(=O)n2N)cc1
4. O=C1CC(c2ccc(Cl)cc2)C2(C(=O)NC(=O)NC2=O)C(c2ccc(Cl)cc2)C1 (stereo not given)
5. COc1cc2ccc1OCc1cccc(n1)COc1ccc(cc1OC)C=Nc1ccc(cc1)-c1ccc(cc1)N=C2
6. COc1ccc(C2c3cc4c(cc3OC(O)(CO)C2C(=O)O)OCO4)cc1 (stereo not given) (tested in a mixture with another compound)

1: 27.6 µM; 2: > 100 µM; 3: 71.9 µM; 4: > 75 µM; 5: > 100 µM; 6: 88 µM

Dear colleague, could you please provide TGI for the compounds listed below?
1. COC(=O)OCc1ccc2c(c1)C(=O)c1c-2n(CCCBr)c(=O)c2cc([N+](=O)[O-])ccc12
2. c1cc(-c2cn[nH]c2)cc(-c2cn[nH]c2)c1
3. CCN(CC)CCOc1ccc2c(c1)C(=O)c1cc(OCCN(CC)CC)ccc1-2

> 100 µM
58.6 µM
63.6 µM

Dear colleague, could you please provide TGI for the compounds listed below?
1. CC(C)(C)OC(=O)CN1CCc2c(sc3ncnc(N/N=C/c4cccc5ccccc45)c23)C1
2. COc1cc(NCc2ccccc2O)c2ncccc2c1
3. CCNc1nc2c(ncn2C2CC(O)C(COP(=O)(O)O)O2)c(=O)[nH]1 (stereo not given)

["> 33.3 µM", "80.8 µM", "> 100 µM"]
